Parameter Pa, Partition coefficient: see the listing below.
Method: partition coefficient n-octanol/water (Pa)
Type: physicochemical
Setup conditions: UV absorption
// response body must contain only the number

Solved entries (count: 3):
                              compound  measured_value
0       S=C(NCCC1=CCCCC1)Nc1ccc(Br)cn1             8.6
1  FC(F)(F)c1ccc(NC(=S)NCCN2CCCCC2)nc1           10.27
2        S=C(NCCN1CCCCC1)Nc1ccc(Br)cn1            8.91

Q. Entry `COc1ccc(OC)c(CCNC(=S)Nc2ccc(C(F)(F)F)cn2)c1` has what Pa, Partition coefficient?
A. 1.00

Q. And S=C(NCCc1ccccn1)Nc1ccc(Br)cn1 [Trovirdine, reference compound] ?
A. 5.3
